Target: Endotheliase-1 (ET1)
Assay: cell-based or functional assay
Reported activity against protease in selectivity screen (enzyme assay) values follow for various binders
Metric Name: activity against protease in selectivity screen (enzyme assay)

>>> obs_value("B5 IgG1 antibody (Fab B5 reformatted) (antibody, V domains shown) VH: EVQLLESGGGLVQPGGSLRLSCAASGFTFSRYRMYWVRQAPGKGLEWVSSISPSGGDTRYADSVKGRFTISRDNSKNTLYLQMNSLRAEDTAVYYCARGGPRGNKYYFDYWGQGTLVTVSS VL: SYELTQPPSVSVSLGQAANISCSGDRLGDKYTSWYQQQSGQSPVLVIYQDKKRPSGIPERFSGSSSGNTATLTISGAQAIDEAAYYCQAWATNVVFGAGTKLTVLG")
"< 5%"
>>> obs_value("C9 IgG1 antibody (Fab C9 reformatted) (antibody, V domains shown) VH: EVQLLESGGGLVQPGGSLRLSCAASGFTFSRYPMFWVRQAPGKGLEWVSYISSSGGFTGYADSVKGRFTISRDNSKNTLYLQMNSLRAEDTAVYYCARGGPRGNKYYFDYWGQGTLVTVSS VL: QSVLTQPASVSGSPGQSITISCTGTSSDVGHYNYVSWYQQHPGKAPKVMIYDVSSRPSGVSDRFSGSKSGNTASLAISGLQAEDEADYYCSSYTSGDTLYVFGTGTKVTVLG")
"< 5%"
>>> obs_value("D5 IgG1 antibody (Fab D5 reformatted) (antibody, V domains shown) VH: EVQLLESGGGLVQPGGSLRLSCAASGFTFSRYDMHWVRQAPGKGLEWVSSISSSGGYTAYADSVKGRFTISRDNSKNTLYLQMNSLRAEDTAVYYCARGARGTSQGYWGQGTLVTVSS VL: DIQMTQSPGTLSLSPGERGTLSCRASQFVSYSYLAWYQQKPGQAPRLLIYGASSRAKGIPDRFSGSGSGTDFTLTITRLEPEDFAVYYCQQYVPSVPWTFGQGTKVEVKR")
"< 5%"

This collection of values is drawn from patent US20080019962A1.
